Molecular target: rat MR LBD (Rattus norvegicus, UniProt P22199)
Construct: expressed in transfected cells; host or cells: U2-OS
Sequence (P22199 723-961 limits assumed): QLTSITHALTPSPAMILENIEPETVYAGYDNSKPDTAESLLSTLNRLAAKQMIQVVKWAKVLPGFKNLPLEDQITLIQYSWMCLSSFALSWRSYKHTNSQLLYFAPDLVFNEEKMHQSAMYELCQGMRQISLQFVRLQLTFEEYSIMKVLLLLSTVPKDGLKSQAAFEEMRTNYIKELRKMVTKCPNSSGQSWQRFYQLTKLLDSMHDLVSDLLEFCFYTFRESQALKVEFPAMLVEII
Assay: GAL4-MR LBD reporter gene assay, U2-OS cells
Assay type: cell-based
Settings: read-out: IC50
Measured Endpoint: pIC50
Give bare numbers, as −log10 of the molar value.

The value of pIC50 measured for the compound CNC(=O)C[C@H]1COc2cc(F)ccc2N1C(=O)c1ccc2c(c1)NC(=O)CO2 [AZD9977] turned out to be 7.10
